measured target: T1, nanodisc embedded human CACNG1 expressed with a C-terminal PADRE-Flag-His tag (human, UniProt Q06432 1-222)
T1 construct: Membrane protein (gamma-1 subunit of the skeletal muscle L-type calcium channel) in a nanodisc; also called human CACNG1 nanodisc; CACNG1 nanodisc; not shown: C-terminal PADRE-Flag-His tag
T1 sequence (Q06432 whole entry): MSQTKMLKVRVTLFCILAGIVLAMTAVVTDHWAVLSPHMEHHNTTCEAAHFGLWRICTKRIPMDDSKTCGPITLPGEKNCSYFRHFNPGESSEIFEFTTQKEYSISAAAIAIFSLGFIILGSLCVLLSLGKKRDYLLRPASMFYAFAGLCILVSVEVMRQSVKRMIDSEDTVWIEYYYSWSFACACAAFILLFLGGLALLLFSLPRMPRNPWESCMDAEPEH
protocol details: SPR (Biacore T200), 25 C, anti-His-captured human CACNG1 nanodisc, antibody as analyte
mAb Bound at 300 nM (RU) strictly less than 20 RU = Criterion met. Otherwise Criterion not met.

REGN7660 (antibody, human IgG4 S228P, kappa, V domains shown, also called antibody designation 9) VH: EVQLVESGGGLVQPGGSLKLSCTASGLTLSDSAMHWVRQASGKGLEWVGRIRNKANRYATEYAASVKGRFTISRDDSKNTAYLQMNSLKTEDTAVYYCTRNWKIFLFDYWGQGTLVTVSS VL: EIVLTQSPGTLTLSPGERATLSCRASQSVGSKYLAWFQQKRGQAPRLLIYGASSRTSGIPDRISGSGSGTDFTLTISRLEPEDFAVYYCQQYGSSPWTFGQGTKVEIKR ... Criterion not met
H2aM31944N (antibody, mouse IgG2a, kappa, V domains shown, also called antibody designation 6) VH: QVQLVESGGGVVQPGRSLRLSCEASGITFRNYGMHWVRQAPGKGLEWVAVMWYDGSNKYYADSVKGRFTISRDNSKNTVYLQMNSLRAEDTAVYYCARRGHIATAAPFDYWGQGTLVTVSS VL: DIQMTQSPSSLSASVGDRVTISCRASQSISSYLNWYQQKPGKAPKVLMYAASSLQSGVPSRFSGSGSGTDFTLTISSLQPEDFATYYCQQSYSTPPITFGQGTRLEIKR ... Criterion met
REGN10717 (antibody, human IgG4 S228P, kappa, V domains shown, also called antibody designation 3) VH: QVQLVESGGGVVQPGRSLRLSCAASGFTFSTYGMHWVRQAPGKGLEWVAVIWHDGSDKYYVDSVKGRFSIARDNSKNTLYLQMNSLRVEDTGIYYCARRGIRGTVFDHWGLGTLVTVSS VL: DIQMTQSPSTLSASVGDRVTLTCRASQSISNKLAWYQQKPGKAPNLLIYKASNLESGVPSRFSGSGSGTEFTLTISSLQPDDFATYYCQQYNSYSWTFGQGTKVEIKR ... Criterion met

Strictly below 20 RU: is that where mAb Bound at 300 nM (RU) of REGN10716 (antibody, human IgG4 S228P, kappa, V domains shown, also called antibody designation 4) VH: QVQLQESGPGLVKPSETLSLTCTVSGDSINNYYWTWLRQPPGKGLEWIGYIYYSGSANYNPSLKSRVTISVDTSKNQFSLKLNSVTAADTAVYYCARGAVKYFRHWGQGTLVTVSS VL: EIVLTQSPGTLSLSPGERATLSCRASQTINHNNLAWYQQRPGQAPRLLIYGASNRATAIPDRFSGSGSGTDFTLTISRLEPEDFEVYSCQQYGSLPLTFGGGTKVEIKR sits?
Criterion not met

Strictly below 20 RU: is that where mAb Bound at 300 nM (RU) of REGN10713 (antibody, human IgG4 S228P, lambda, V domains shown, also called antibody designation 11) VH: EVQLVESGGNLVQPGGSLRLSCAASGFTFTSHAMNWVRQAPGKGLEWVSVITGRGFDTHYADSVKGRFTISRDISKNTLYLQMNSLRAEDTAVYYCAKGLYDSGNYYIDYWGQGTLVTVSS VL: QSVLTQPPSVSAAPGQKVTISCSGSSSNIGNNYVSWYQQLPGTAPKLLIYDNNKRPSGIPDRFSGSKSGTSATLGITGLQTGDEADYYCGTWDLSLSFNWVFGGGTKLTVLG sits?
Criterion not met

Data provenance is patent US20260234660A1.
